B1: Twister Ribozyme (parent)
chain: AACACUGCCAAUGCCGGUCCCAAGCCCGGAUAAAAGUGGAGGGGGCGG

- Variants of: B1
- procedure text: self-cleavage, relative activity (ratio to wild type); higher = more cleavage; co-transcriptional
// reported self-cleavage for each item listed

residue change: C19G A40U
self-cleavage: 0.0582
--
residue change: G17A C21A
self-cleavage: 0.101
--
residue change: A2U G36C
self-cleavage: 0.129
--
residue change: A11U G17C
self-cleavage: 0.111
--
residue change: U12G G13C
self-cleavage: 1.05
--
residue change: C3A A30C
self-cleavage: 0.225
--
residue change: A2U U12A
self-cleavage: 0.667
--
residue change: G43C G47A
self-cleavage: 0.138
--
residue change: U12A G41U
self-cleavage: 0.772
--
residue change: C14G A23G
self-cleavage: 0.103
--
residue change: C26G G48A
self-cleavage: 0.107
--
residue change: A23C C26G
self-cleavage: 0.12
--
residue change: A10C G13A
self-cleavage: 0.764
--
residue change: G16A G41A
self-cleavage: 0.364
--
residue change: U12C G28U
self-cleavage: 0.88
--
residue change: A22C A34C
self-cleavage: 0.169
--
residue change: U12C G44C
self-cleavage: 0.932
--
residue change: C25U G29C
self-cleavage: 0.635
--
residue change: A1G G29A
self-cleavage: 0.437
--
residue change: G7U G41A
self-cleavage: 0.0662
--
residue change: A4C G17U
self-cleavage: 0.0801
--
residue change: C8U A35C
self-cleavage: 0.547
